- system name: p97 ATPase WT (Homo sapiens, UniProt P55072)
- Sequence (P55072 whole entry): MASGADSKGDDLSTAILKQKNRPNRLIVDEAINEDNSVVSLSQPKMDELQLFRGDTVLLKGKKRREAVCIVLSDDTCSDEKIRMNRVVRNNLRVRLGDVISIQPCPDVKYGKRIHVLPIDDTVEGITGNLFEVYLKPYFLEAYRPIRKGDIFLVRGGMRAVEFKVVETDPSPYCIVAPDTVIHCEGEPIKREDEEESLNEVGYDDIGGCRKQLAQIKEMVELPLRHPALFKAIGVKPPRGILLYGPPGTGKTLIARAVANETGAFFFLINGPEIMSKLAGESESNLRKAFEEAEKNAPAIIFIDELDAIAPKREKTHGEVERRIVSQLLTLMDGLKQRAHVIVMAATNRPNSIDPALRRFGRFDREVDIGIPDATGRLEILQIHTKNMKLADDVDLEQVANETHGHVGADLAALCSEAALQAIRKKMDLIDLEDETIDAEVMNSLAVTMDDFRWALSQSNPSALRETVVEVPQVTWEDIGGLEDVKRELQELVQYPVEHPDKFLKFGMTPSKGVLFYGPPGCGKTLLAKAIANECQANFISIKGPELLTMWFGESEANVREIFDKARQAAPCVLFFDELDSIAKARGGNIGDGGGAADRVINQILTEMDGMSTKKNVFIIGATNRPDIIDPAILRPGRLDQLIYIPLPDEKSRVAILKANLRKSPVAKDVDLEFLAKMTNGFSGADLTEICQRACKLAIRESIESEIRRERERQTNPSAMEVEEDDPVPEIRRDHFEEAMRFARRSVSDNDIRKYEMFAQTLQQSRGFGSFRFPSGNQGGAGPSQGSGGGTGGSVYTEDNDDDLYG
- assay remarks: ADPGlo biochemical assay of p97 ATPase inhibition
pIC50: −log10 of the molar value.
outcome measure: pIC50

Cc1ccc(N2CCC(NCCN3CCN(C(C)C)CC3)CC2)cc1-c1cc2cc(C#N)ccc2[nH]1; 7.06
CC(C)N1CCN(CCNC2CCN(c3cccc(-c4cc5cc(F)cnc5[nH]4)c3)CC2)CC1; 5.32
CC(C)N1CCN(CCNC2CCN(c3cccc(-c4cc5cc(C(N)=O)ccc5[nH]4)c3)CC2)CC1; 7.00
CC(C)N1CCN(CCNC2CCN(c3cccc(-c4nc5ccccc5[nH]4)c3)CC2)CC1; 4.41
CC(C)N1CCN(CCNC2CCN(c3cccc(-c4cc5cc(Cl)ccc5[nH]4)c3)CC2)CC1; 6.72
CC(C)N1CCN(CCNC2CCN(c3cccc(-c4ccc5ccccc5c4)c3)CC2)CC1; 5.28
CC(C)N1CCN(CCNC2CCN(c3cccc(-c4cc5cnccc5[nH]4)c3)CC2)CC1; 5.40

====

- system name: p97 ATPase WT (Homo sapiens)
- assay remarks: ADPGlo biochemical assay of p97 ATPase inhibition
pIC50: −log10 of the molar value.
outcome measure: pIC50

CNC(=O)c1ccc2[nH]c(-c3cccc(N4CCC(NCCN5CCN(C(C)C)CC5)CC4)c3)cc2c1; 6.35
Cc1ccc(N2CCC(NCCN3CCN(C(C)C)CC3)CC2)cc1-c1cc2cc(F)ccc2[nH]1; 7.30
CC(C)N1CCN(CCNC2CCN(c3ccc4c(c3)-c3[nH]c5ccccc5c3CC4)CC2)CC1; 6.41
COC(=O)c1ccc2[nH]c(-c3cccc(N4CCC(NCCN5CCN(C(C)C)CC5)CC4)c3)cc2c1; 6.89

Provenance of the data: paper PMC5472064
